TARGET OR SYSTEM: human CD40 on cells (human, UniProt P25942 21-277)
Sequence (P25942 21-277 limits assumed): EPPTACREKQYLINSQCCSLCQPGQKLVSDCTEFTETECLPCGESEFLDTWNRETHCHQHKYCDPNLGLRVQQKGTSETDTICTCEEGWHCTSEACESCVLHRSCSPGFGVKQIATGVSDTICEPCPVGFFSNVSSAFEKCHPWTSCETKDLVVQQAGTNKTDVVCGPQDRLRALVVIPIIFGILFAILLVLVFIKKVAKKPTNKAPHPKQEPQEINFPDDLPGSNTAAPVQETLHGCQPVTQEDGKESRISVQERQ
TEST DESCRIPTION: cell-based or functional assay
Output T for human B cell proliferation, with protein G crosslinking, Max Fold Change not less than 20 fold; output F otherwise.

BINDER	CLASSIFICATION
33H6 (antibody, IgG4, V domains shown, also called 4883-1) VH: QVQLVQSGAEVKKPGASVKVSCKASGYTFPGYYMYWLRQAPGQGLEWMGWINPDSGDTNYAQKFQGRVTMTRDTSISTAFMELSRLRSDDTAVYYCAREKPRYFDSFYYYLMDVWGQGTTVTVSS VL: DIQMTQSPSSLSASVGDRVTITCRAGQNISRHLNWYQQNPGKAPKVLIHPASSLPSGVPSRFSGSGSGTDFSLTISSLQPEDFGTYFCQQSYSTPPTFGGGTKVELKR	F
35F11 (antibody, IgG4, V domains shown, also called 4868-1) VH: QVQLVESGGGVVQPGRSLRLSCAASGFTLSSYGMHWVRQAPGKGLEWVAVIWYDGSNKYYADSVKGRVTISRDNSKNTLYLQMNSLRAEDTAVYYCTRDGRNYVYFDNWGQGTLVTVSS VL: QSALTQPRSVSGSPGQSVTISCTGTSSDVGGYIFVSWYQQHPGKAPKLMIYDVSKRPSGVPDRFSGSKSVNTASLTISGLQAEDETDYYCCSYAGNYTYVFGTGTKVTVLG	T
33H9 (antibody, IgG4, V domains shown, also called 4897-1) VH: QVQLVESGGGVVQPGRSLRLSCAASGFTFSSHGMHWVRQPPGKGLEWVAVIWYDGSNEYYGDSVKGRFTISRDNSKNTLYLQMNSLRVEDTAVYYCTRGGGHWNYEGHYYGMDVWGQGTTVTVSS VL: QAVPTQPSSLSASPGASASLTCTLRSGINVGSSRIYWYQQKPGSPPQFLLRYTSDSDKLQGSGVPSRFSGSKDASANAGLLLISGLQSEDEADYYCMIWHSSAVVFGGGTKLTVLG	T
4G7 (antibody, IgG4, V domains shown, also called 4869-1) VH: QVQLVQSGAEVKKPGASVKVSCKASGYTFAGYYMHWVRQAPGQGLEWMGWINPDSGGTNFAQQFQGRVTMTRDTSISTAYMEVSRLRSDDTAVFYCAREKITMTGIYFDYWGQGTLVTVSS VL: DIQMTQSPSSLSASVGDILTITCRASQNITTYLNWYQQKPGKAPNLLISAASRLRSGVPSRFSGSGSGTDFTLTISSLQPVDFTTFYCQQTFTTPWTFGQGTKVEIKR	F
39C2 (antibody, IgG4, V domains shown, also called 4887-1) VH: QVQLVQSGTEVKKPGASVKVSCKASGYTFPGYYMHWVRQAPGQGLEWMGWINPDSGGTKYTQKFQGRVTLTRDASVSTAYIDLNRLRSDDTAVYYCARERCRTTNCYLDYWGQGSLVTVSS VL: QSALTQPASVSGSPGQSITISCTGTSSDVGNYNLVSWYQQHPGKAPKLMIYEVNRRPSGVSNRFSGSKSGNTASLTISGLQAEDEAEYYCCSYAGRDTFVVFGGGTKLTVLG	T
29H10 (antibody, V domains shown, also called 4877-1) VH: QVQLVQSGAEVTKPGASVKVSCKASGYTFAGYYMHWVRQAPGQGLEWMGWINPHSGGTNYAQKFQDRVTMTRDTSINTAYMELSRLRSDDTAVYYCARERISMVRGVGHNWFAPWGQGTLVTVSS VL: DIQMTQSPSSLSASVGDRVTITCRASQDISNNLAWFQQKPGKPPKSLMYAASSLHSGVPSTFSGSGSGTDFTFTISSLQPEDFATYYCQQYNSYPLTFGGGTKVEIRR	F
